Test: NCI Yeast Anticancer Drug Screen. Data for the mlh1 strain (AID 171);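 note: 0% = growth of vehicle-treated control cultures of the same strain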
Details: S. cerevisiae mlh1 strain growth inhibition; at 3.7 µM; stronger effect = higher value
Description: Growth inhibition of yeast strains with defined genetic alterations is measured as a screen for potential anti-cancer activity. Selected strains with alterations in DNA damage repair or cell cycle control were exposed to compounds and growth inhibition was measured relative to vehicle treated controls. The strain used in this assay is mlh1
This is part of a sample that, as a whole, favours compounds with a hit. Of some 79,000 tested, about 15% had one in any assay.
value.kind: growth inhibition (%)

compound=CNc1nc(C)nc2c1cnn2-c1ccc([N+](=O)[O-])cc1 value_kind="growth inhibition" quantitative_readout=-1
compound=COc1cc(N(C)C)ccc1/C=C\c1ccnc2ccccc12 value_kind="growth inhibition" quantitative_readout=-6
compound="CCC(NC(C)c1ccccc1)C(=O)c1ccc(OCc2ccccc2)c(OCc2ccccc2)c1 (configuration not stated)" value_kind="growth inhibition" quantitative_readout=-6
compound=COc1cc2c(cc1C[N+](C)(C)CSc1ccccc1)-c1ccccc1CC2 value_kind="growth inhibition" quantitative_readout=16
compound=C=C1N(C)c2ccc(Cl)cc2C1(C)C value_kind="growth inhibition" quantitative_readout=-43
compound="CCC(=O)N(c1ccccc1)C(C)CN1CCC(O)(c2cccc(C(F)(F)F)c2)CC1 (configuration not stated)" value_kind="growth inhibition" quantitative_readout=6
compound="CCCCCCCCCCCCCC(=O)OC(C)CCC1CCCO1 (configuration not stated)" value_kind="growth inhibition" quantitative_readout=3
compound=O=C(CNS(=O)(=O)Cc1ccccc1)NNc1ccccc1 value_kind="growth inhibition" quantitative_readout=0
compound=Cc1ccc(I)cc1N=C=S value_kind="growth inhibition" quantitative_readout=28
compound="CC1(C)C(C=O)=CCC1CC(N)=O (configuration not stated)" value_kind="growth inhibition" quantitative_readout=0
compound="CC1OC(OC2CCCc3c(O)c4c(c(O)c32)C(=O)c2ccccc2C4=O)CC(N)C1O (configuration not stated)" value_kind="growth inhibition" quantitative_readout=-6
compound=Cc1cccc(/C=N\NC(=S)N2CCCCC2)n1 value_kind="growth inhibition" quantitative_readout=63
compound=O=S(=O)(N/N=C/c1cccc(Cl)c1)c1ccccc1 value_kind="growth inhibition" quantitative_readout=0
compound="CCCCC(CC)C(=O)Oc1ccc(C(=O)c2ccccc2)c(O)c1 (configuration not stated)" value_kind="growth inhibition" quantitative_readout=-10
compound="S=C(S)NCC1CCC(CNC(=S)S)CC1 (configuration not stated)" value_kind="growth inhibition" quantitative_readout=15
compound=CC(C)(C)c1ccc(O)c(C(c2ccc([N+](=O)[O-])cc2)c2cc(C(C)(C)C)ccc2O)c1 value_kind="growth inhibition" quantitative_readout=6
compound=CCOC(=O)Nc1ccc2c(c1)Cc1ccccc1-2 value_kind="growth inhibition" quantitative_readout=-8
compound=CO[C@@]12[C@H](COC(N)=O)C3=C(C(=O)C(C)=C(N)C3=O)N1C[C@@H]1N[C@@H]12 value_kind="growth inhibition" quantitative_readout=7
compound=COc1ccc(SCc2cc(OC)ccc2OC)cc1 value_kind="growth inhibition" quantitative_readout=-4
compound=[N-]=[N+]=NC(c1ccccc1)(c1ccccc1)c1ccccc1 value_kind="growth inhibition" quantitative_readout=10
compound=COc1cc(CNc2ccc(C(C)C)cc2)cc(OC)c1OC value_kind="growth inhibition" quantitative_readout=-21
compound=O=NN(CCCl)C(=O)NCCCl value_kind="growth inhibition" quantitative_readout=-2
compound=Oc1ccccc1N=Cc1ccc(Cl)cc1 value_kind="growth inhibition" quantitative_readout=10
compound=CN[C@@H]1C[C@H]2O[C@@](C)([C@@H]1OC)n1c3ccccc3c3c4c(c5c6ccccc6n2c5c31)C(=O)N[C@@H]4O value_kind="growth inhibition" quantitative_readout=-12
compound=CCCCCC#CCOC(=O)C(=[N+]=[N-])P(=O)(c1ccccc1)c1ccccc1 value_kind="growth inhibition" quantitative_readout=23
compound=S=c1[nH]c2c(Cl)c(Cl)c(Cl)c(Cl)c2[nH]1 value_kind="growth inhibition" quantitative_readout=22
compound=O=C1c2ccccc2C(=O)c2cc(S(=O)(=O)Nc3ccccc3)ccc21 value_kind="growth inhibition" quantitative_readout=2
compound="CC(=O)[C@]1(O)Cc2c(O)c3c(c(O)c2[C@@H](OC2CC(N)C(O)C(C)O2)C1)C(=O)c1c(OCc2ccccc2)cccc1C3=O (some centres not stated)" value_kind="growth inhibition" quantitative_readout=-1
compound=COc1ccc2oc(-c3ccc(Cl)cc3)c(N3CCN(C)CC3)c2c1 value_kind="growth inhibition" quantitative_readout=0
compound=OCCNCCOc1ccc(/C(=C(/Cl)c2ccccc2)c2ccccc2)cc1 value_kind="growth inhibition" quantitative_readout=12
compound="CCN(CC)CC(O)c1cc(-c2ccc(Cl)cc2)nc2c(-c3ccccc3)cccc12 (configuration not stated)" value_kind="growth inhibition" quantitative_readout=2
compound=N#CC(=S)Nc1cccc(Cl)c1 value_kind="growth inhibition" quantitative_readout=7
compound=Cc1cc(Cl)ccc1NC(=O)/C(Cl)=C1/Sc2ccccc2NC1=O value_kind="growth inhibition" quantitative_readout=-3
compound=CN(N=O)c1ccc(/C=C/c2ccnc3ccccc23)cc1 value_kind="growth inhibition" quantitative_readout=5
compound=CCOC(=O)CNC(=O)c1[nH]cnc1/N=N/N(C)C value_kind="growth inhibition" quantitative_readout=5
compound="CCC(c1ccc(O)cc1)C(CC)c1ccc(OCCN)cc1 (configuration not stated)" value_kind="growth inhibition" quantitative_readout=-4
compound=CSc1s[s+]c(SC)c1-c1ccccc1 value_kind="growth inhibition" quantitative_readout=-23
